- System: HCT116 cell line (colorectal cancer)
- procedureText: Anti-proliferative activity assay (WST-8)
- Format: cell-based
- studyConditions: Homo sapiens, HCT-116, 96 h; in vitro growth of HCT116, 4 days incubation, WST-8, concentration yielding 50% OD of control growth
propertyLabel: IC50 (pM)
Give the value in pM but do not write pM after it.

Take a look at these entries with their results.
CN(CCCN(C)CCNc1nc2ccccc2c2c1C(=O)c1cnccc1-2)CCNc1nc2ccccc2c2c1C(=O)c1cnccc1-2 ... 640
COc1ccc2c3c(c(NCCN(C)CCCN(C)CCNc4nc5ccccc5c5c4C(=O)c4cnccc4-5)nc2c1)C(=O)c1cnccc1-3 ... 80
CN(C)CCNc1nc2cc(O)ccc2c2c1C(=O)c1ccccc1-2 [Reference compound, reference compound] ... 12000
CN(CCCN(C)CCNc1nc2cc(Cl)ccc2c2c1C(=O)c1cnccc1-2)CCNc1nc2cc(Cl)ccc2c2c1C(=O)c1cnccc1-2 ... 20
CN(CCCN(C)CCNc1nc2ccccc2c2c1C(=O)c1ccncc1-2)CCNc1nc2ccccc2c2c1C(=O)c1ccncc1-2 ... 300

We next turn to a different compound, shown below.
## Task What does the data say about its IC50? Entry: CN(CCCN(C)CCNc1nc2ccccc2c2c1C(=O)c1ccncc1-2)CCNc1nc2ccccc2c2c1C(=O)c1cnccc1-2
## Result 130

meta.source: patent US6946472B2
